src = paper PMC4613797

- System: vitamin D receptor (VDR)
- run description: Lentiviral VDRE luciferase reporter assay in Caco-2 cells
- Format: cell-based
- experimental setup: Homo sapiens, Caco-2, 24 h, read-out: VDRE activation (EC50, nM) Caco-2, Caco-2, VDRE-luciferase, 24 h
endpoint label: EC50

C=C1CC[C@H](O)C/C1=C/C=C1\CCC[C@@]2(C)[C@H]1CC[C@@H]2[C@@](C)(O)CC[C@@H](O)C(C)C [Compound 17a, 20S,24R-dihydroxyvitamin D3]; > 1000 nM

Would you kindly look at the next entry?
Task: Return reported EC50; argument: C=C1CC[C@H](O)C/C1=C/C=C1\CCC[C@@]2(C)[C@H]1CC[C@@H]2[C@@](C)(O)CC[C@H](O)C(C)C [Compound 17b, 20S,24S-dihydroxyvitamin D3]
Output: > 1000 nM

====

- System: vitamin D receptor (VDR)
- run description: Lentiviral VDRE luciferase reporter assay in Caco-2 cells
- Assay type: cell-based
- experimental setup: read-out: VDRE activation (EC50, nM) Caco-2; Caco-2, VDRE-luciferase, 24 h
endpoint label: EC50

Task: I'd like to know its EC50. The compound in question is C=C1CC[C@H](O)C/C1=C/C=C1\CCC[C@@]2(C)[C@H]1CC[C@@H]2[C@@](C)(O)CC[C@H](O)C(C)C [Compound 17b, 20S,24S-dihydroxyvitamin D3]
Output: > 1000 nM

Task: EC50 lookup needed for C=C1CC[C@H](O)C/C1=C/C=C1\CCC[C@@]2(C)[C@H]1CC[C@@H]2[C@@](C)(O)CC[C@@H](O)C(C)C [Compound 17a, 20S,24R-dihydroxyvitamin D3] , thanks.
Output: > 1000 nM
